system: SK-BR-3; test: Antiproliferative activity against human SKBR3 cells after 72 hrs by MTT assay; type: functional, cell-based; details: SK-BR-3, 72 h

molecule-smiles	unit-descriptor	IC50
C[C@@H]1CC[C@@]2(OC1)O[C@H]1C[C@H]3[C@@H]4CC[C@H]5C[C@@H](OC(=O)c6ccccc6)CC[C@]5(C)[C@H]4CC(=O)[C@]3(C)[C@H]1[C@@H]2C	µM	33.4
C[C@@H]1CC[C@@]2(OC1)O[C@H]1C[C@H]3[C@@H]4CC[C@H]5C[C@@H](O)CC[C@]5(C)[C@H]4C/C(=N\NC(=O)Nc4cccc(Cl)c4)[C@]3(C)[C@H]1[C@@H]2C	µM	9.8
C[C@@H]1CC[C@@]2(OC1)O[C@H]1C[C@H]3[C@@H]4CC[C@H]5C[C@@H](O)CC[C@]5(C)[C@H]4C/C(=N\NC(=S)Nc4ccccc4[N+](=O)[O-])[C@]3(C)[C@H]1[C@@H]2C	µM	5.5
C[C@@H]1CC[C@@]2(OC1)O[C@H]1C[C@H]3[C@@H]4CC[C@H]5C[C@@H](O)CC[C@]5(C)[C@H]4C/C(=N\NC(=S)Nc4ccc(Cl)cc4Cl)[C@]3(C)[C@H]1[C@@H]2C	µM	8.8

---

system: SK-BR-3; test: Antiproliferative activity against human SKBR3 cells after 72 hrs by MTT assay; format: functional, cell-based; conditions: SK-BR-3, 72 h
pIC50: −log10 of the molar value.

molecule-smiles	pIC50
Cc1ccc(NC(=S)N/N=C2\C[C@H]3[C@@H](CC[C@H]4C[C@@H](O)CC[C@@]43C)[C@@H]3C[C@@H]4O[C@]5(CC[C@@H](C)CO5)[C@@H](C)[C@@H]4[C@@]23C)c(C)c1	5.38
CCc1ccccc1NC(=S)N/N=C1\C[C@H]2[C@@H](CC[C@H]3C[C@@H](O)CC[C@@]32C)[C@@H]2C[C@@H]3O[C@]4(CC[C@@H](C)CO4)[C@@H](C)[C@@H]3[C@@]12C	5.33
C[C@@H]1CC[C@@]2(OC1)O[C@H]1C[C@H]3[C@@H]4CC[C@H]5C[C@@H](O)CC[C@]5(C)[C@H]4C/C(=N\NC(=O)Nc4ccccc4)[C@]3(C)[C@H]1[C@@H]2C	4.92
C[C@@H]1CC[C@@]2(OC1)O[C@H]1C[C@H]3[C@@H]4CC[C@H]5C[C@@H](O)CC[C@]5(C)[C@H]4C/C(=N\NC(=S)Nc4ccc([N+](=O)[O-])cc4)[C@]3(C)[C@H]1[C@@H]2C	5.10

---

tested on: SK-BR-3; assay: Antiproliferative activity against human SKBR3 cells after 72 hrs by MTT assay; assay type: functional, cell-based; details: SK-BR-3, 72 h
Lab note: cut-off is 30 µM. Strictly less in IC50 is satisfied. Exactly 30 µM or more is not satisfied.

molecule-smiles	label-class
C[C@@H]1CC[C@@]2(OC1)O[C@H]1C[C@H]3[C@@H]4CC[C@H]5C[C@@H](OC(=O)c6ccc([N+](=O)[O-])cc6)CC[C@]5(C)[C@H]4CC(=O)[C@]3(C)[C@H]1[C@@H]2C	not satisfied
C[C@@H]1CC[C@@]2(OC1)O[C@H]1C[C@H]3[C@@H]4CC[C@H]5C[C@@H](O)CC[C@]5(C)[C@H]4C/C(=N\NC(=S)Nc4c(Cl)cccc4Cl)[C@]3(C)[C@H]1[C@@H]2C	satisfied
C[C@@H]1CC[C@@]2(OC1)O[C@H]1C[C@H]3[C@@H]4CC[C@H]5C[C@@H](OC(=O)c6ccc(C#N)cc6)CC[C@]5(C)[C@H]4CC(=O)[C@]3(C)[C@H]1[C@@H]2C	not satisfied
C[C@@H]1CC[C@@]2(OC1)O[C@H]1C[C@H]3[C@@H]4CC[C@H]5C[C@@H](O)CC[C@]5(C)[C@H]4C/C(=N\NC(=S)Nc4ccc(F)cc4)[C@]3(C)[C@H]1[C@@H]2C	satisfied
COc1ccccc1NC(=S)N/N=C1\C[C@H]2[C@@H](CC[C@H]3C[C@@H](O)CC[C@@]32C)[C@@H]2C[C@@H]3O[C@]4(CC[C@@H](C)CO4)[C@@H](C)[C@@H]3[C@@]12C	satisfied
C[C@@H]1CC[C@@]2(OC1)O[C@H]1C[C@H]3[C@@H]4CC[C@H]5C[C@@H](O)CC[C@]5(C)[C@H]4CC(=O)[C@]3(C)[C@H]1[C@@H]2C	not satisfied
COc1ccccc1C(=O)O[C@H]1CC[C@@]2(C)[C@@H](CC[C@@H]3[C@@H]2CC(=O)[C@]2(C)[C@@H]4[C@H](C[C@@H]32)O[C@]2(CC[C@@H](C)CO2)[C@H]4C)C1	not satisfied
C[C@@H]1CC[C@@]2(OC1)O[C@H]1C[C@H]3[C@@H]4CC[C@H]5C[C@@H](OC(=O)c6ccccc6Cl)CC[C@]5(C)[C@H]4CC(=O)[C@]3(C)[C@H]1[C@@H]2C	not satisfied
